tgt: HLA-A*0301 (human)
assay-name: competition with 125I probe peptide on purified HLA-A*0301; relative to standard peptide 941.12
condition: remark: other sources report otherwise
Please provide measured binding affinity ratio (IC50 standard peptide / IC50 test peptide) for the entries that follow.
Answers are plain numbers.

{"binder": "TAELLAACFAR (modifications not checked) [HBV POL 716 peptide …]", "numeric-readout": 0.0006}

Value sought for every listed binder: binding affinity ratio (IC50 standard peptide / IC50 test peptide).
1. TSAICSVVR (modifications not checked) [HBV POL 519 peptide …]
2. SAGPCALR (modifications not checked) [HBV X 65 peptide SAGPCALR]
3. SAICSVVR (modifications not checked) [HBV POL 520 peptide SAICSVVR]

Ans.
[0.0005, -0.0002, -0.0002]
